System: Mus musculus
Experiment: Analgesic activity in mouse assessed as maximum change in tail flick latency time at 10 mg/kg (reference value: 0.7 secs)
Format: functional
EXPERIMENTAL READOUT: Time (s)
Just the number in s, nothing appended.

**Query** What value of Time has been recorded for this entry: CC1=N/C(=C\c2ccc(N(C)C)cc2)C(=O)O1
**Result** 1.8

**Query** Query: Time; subject: CC1=N/C(=C\c2ccc(N(C)C)cc2)C(=O)N1c1ccc(O)cc1
**Result** 0.1

**Query** Could you share which Time value was measured for CC1=N/C(=C\c2ccc(N(C)C)cc2)C(=O)N1c1ccc(OCC(O)CNc2ccc(Cl)cc2)cc1 (stereo not given) ?
**Result** 0.9

**Query** Need Time of O=C1/C(=C/c2ccccc2)N=C(CCN2CCOCC2)N1c1ccc(O)cc1 , thanks.
**Result** 4

**Query** Give its Time value. Item: CC1=N/C(=C\c2ccccc2)C(=O)N1c1ccc(OCC2CO2)cc1 (stereo not given)
**Result** 8.5

**Query** Would you mind telling me what Time value was observed for CC1=N/C(=C\c2ccccc2)C(=O)N1c1ccc(OCC(O)CNc2ccc(Cl)cc2)cc1 (stereo not given) ?
**Result** 4.5

**Query** Return reported Time; argument: CC1=N/C(=C\c2ccoc2)C(=O)N1c1ccc(OCC2CO2)cc1 (stereo not given)
**Result** 6.4

**Query** What value of measured Time is listed for O=C1/C(=C/c2ccoc2)N=C(CCN2CCOCC2)N1c1ccc(O)cc1 ?
**Result** 5.2

**Query** Any idea what Time was measured for CC1=N/C(=C\c2ccccc2)C(=O)O1 ?
**Result** 1.3

Next compound, please.
**Query** Time lookup needed for CN(C)c1ccc(/C=C2\N=C(CCN3CCOCC3)N(c3ccc(O)cc3)C2=O)cc1 , thanks.
**Result** 2.6
